Item-by-item account of growth
Test system: OVCAR-5 ovarian
Assay: NCI-60 one-dose screen, 48 h (100 = growth as untreated, 0 = no growth, -100 = all killed)
Conditions: 10 µM
About 83,000 compounds went through this panel and 20% of them were active in at least one assay; those are over-represented in the sample as a whole.
Enter your answer as a number in %; do not include the unit.

Past entries and their recorded results:
{"compound": "OCCN1CCOCC1", "target-or-test-system": "OVCAR-5 ovarian", "unit-spec": "%", "experimental-value": 101}
{"compound": "COc1ccc(OC)c(/C=C2\\CCc3ccccc3C2=O)c1", "target-or-test-system": "OVCAR-5 ovarian", "unit-spec": "%", "experimental-value": 72.9}
{"compound": "c1ccc2c(c1)Sc1ccccc1S2", "target-or-test-system": "OVCAR-5 ovarian", "unit-spec": "%", "experimental-value": 108}
{"compound": "CCOC(=O)C(=O)C=P(c1ccccc1)(c1ccccc1)c1ccccc1", "target-or-test-system": "OVCAR-5 ovarian", "unit-spec": "%", "experimental-value": 101}
{"compound": "O=C(O)CCCCNC(=O)c1ccccc1", "target-or-test-system": "OVCAR-5 ovarian", "unit-spec": "%", "experimental-value": 116}

Sure, the documented growth for NC(=S)NN=C1CCCC1 is 115

Sure, the documented growth for CCS(=O)(=O)c1cc(=O)[nH]c(=O)[nH]1 is 106

Sure, the documented growth for C=CC(O)CCC (stereo not given) is 103

Sure, the documented growth for Sc1ccc(Nc2c3ccccc3nc3ccccc23)cc1 is 99.2

Sure, the documented growth for CCCCCCCCOC(=O)c1ccccn1 is 95

----------
Tested on: RPMI-8226 leukemia
Assay: NCI-60 one-dose screen, 48 h (100 = growth as untreated, 0 = no growth, -100 = all killed)
Details: 10 µM
Compounds without any hit were thinned out: in the full panel of roughly 83,000, 20% have a hit.
Item-by-item account of growth
Enter your answer as a number in %; do not include the unit.

{"compound": "O=C(NC1CCCCC1)OCc1c(COC(=O)NC2CCCCC2)c(-c2ccc(Cl)c(Cl)c2)n2c1CCC2", "experimental-value": 40}
{"compound": "CC(C)(C)n1nc(C2CC2)c(Br)c1NC(=O)c1ccccc1F", "experimental-value": 96.7}

The recorded growth with RPMI-8226 leukemia for CC(C)C(C#N)(C(C)C)C(C)C was 96.5

The recorded growth with RPMI-8226 leukemia for Cc1ccc(C(=O)NC2c3ccccc3Oc3ccccc32)cc1 was 78.9

The recorded growth with RPMI-8226 leukemia for O=C(O)CCCCNC(=O)c1ccccc1 was 103

The recorded growth with RPMI-8226 leukemia for NC(CSC(c1ccccc1)(c1ccccc1)c1ccccc1)C(=O)O (stereo unspecified) was 4.13

----------
Tested on: SF-539 CNS
Experiment: NCI-60 one-dose screen, 48 h
Conditions: 10 µM
Compounds without any hit were thinned out: in the full panel of roughly 83,000, 20% have a hit. The source made the active and inactive calls. Rule for the calls: active = growth percent below 10; inactive = the rest.
Answer with one of the outcomes class 1 for active, class 0 for inactive

Study these solved cases before continuing.
{"compound": "CC(=O)Nc1cccc(Cl)c1C", "target-or-test-system": "SF-539 CNS", "label-value": "class 0"}
{"compound": "COc1ccc2c(c1)CCc1c-2n[nH]c1-c1[nH]nc2c1CCc1cc(OC)ccc1-2", "target-or-test-system": "SF-539 CNS", "label-value": "class 0"}
{"compound": "O=C(O)CCC(NC(=O)OCc1ccccc1)C(=O)O (centres undefined)", "target-or-test-system": "SF-539 CNS", "label-value": "class 0"}
{"compound": "Cc1nc2ccccc2c(C(=O)O)c1O", "target-or-test-system": "SF-539 CNS", "label-value": "class 0"}
{"compound": "NCCCN", "target-or-test-system": "SF-539 CNS", "label-value": "class 0"}

In this assay, the call recorded for O=C(c1ccc(Cl)cc1)c1ccccc1Cl was what?
class 0

In this assay, the call recorded for O=[N+]([O-])c1ccc(O)c(S(=O)(=O)O)c1 was what?
class 0

In this assay, the call recorded for Cc1nc2ccccc2c2nnc(SCC(=O)N(Cc3ccccc3)c3ccccc3)n12 was what?
class 0

In this assay, the call recorded for O=c1[nH]cc(Cl)cc1O was what?
class 0

In this assay, the call recorded for NCC(=O)CCC(=O)O was what?
class 0

In this assay, the call recorded for CC1(C)S(=O)(=O)OCCOS1(=O)=O was what?
class 0

In this assay, the call recorded for CCN=c1cc2sc3cc(NCC)c(C)cc3nc-2cc1C was what?
class 1

In this assay, the call recorded for O=C(NCO)c1ccccc1 was what?
class 0

In this assay, the call recorded for Nc1ccc(N=Nc2ccc(O)cc2)c(N)n1 was what?
class 0

In this assay, the call recorded for Oc1ccc(O)cc1 was what?
class 0

In this assay, the call recorded for CC1=CC(=O)c2ccccc2C1=O was what?
class 0

In this assay, the call recorded for CN(C)CCN(C)CC(C)(C)C(=O)/C=C/c1ccc(Cl)cc1 was what?
class 1

In this assay, the call recorded for O=C(O)CCC(=O)OC(C1CO1)C(OC(=O)CCC(=O)O)C1CO1 (centres undefined) was what?
class 0
